Hello, the source for this data is the NIST ThermoML archive (doi:10.1021/je060139a), in case you need it.

Experiment: refractive index (Na D-line) (dimensionless); xn = mol fraction of the nth substance listed
Conditions: 298.18 K; 100.5 kPa; Liquid; Standard Abbe refractometry; x1 = 0.7
PARAMETER: refractive index
Answers are plain numbers.

Worked examples, 5 compounds total:
In [3]: df
Out[3]:
                                   compound  observed
0  CCOC(=O)CC(C)C [ethyl 3-methylbutanoate] + CCO   1.38897
1  CC(=O)OCc1ccccc1 [benzyl ethanoate] + CCO   1.47958
2  CCOC(=O)CC(C)=O [ethyl 3-oxobutanoate] + CCO    1.4075
3   COC(=O)c1ccccc1 [methyl benzoate] + CCO      1.49
4  CCC(=O)OCc1ccccc1 [benzyl propanoate] + CCO   1.47737

Moving on to the next compound.
Incoming: What value of measured refractive index is listed for CCOC(=O)c1ccccc1O [ethyl 2-hydroxybenzoate] + CCO ?
Outgoing: 1.49784
